src = patent US12479849B2

target or test system: EGFR TMLRCS (Homo sapiens, UniProt P00533, C797S/L858R/T790M)
Sequence (P00533 25-1210 T790M/C797S/L858R): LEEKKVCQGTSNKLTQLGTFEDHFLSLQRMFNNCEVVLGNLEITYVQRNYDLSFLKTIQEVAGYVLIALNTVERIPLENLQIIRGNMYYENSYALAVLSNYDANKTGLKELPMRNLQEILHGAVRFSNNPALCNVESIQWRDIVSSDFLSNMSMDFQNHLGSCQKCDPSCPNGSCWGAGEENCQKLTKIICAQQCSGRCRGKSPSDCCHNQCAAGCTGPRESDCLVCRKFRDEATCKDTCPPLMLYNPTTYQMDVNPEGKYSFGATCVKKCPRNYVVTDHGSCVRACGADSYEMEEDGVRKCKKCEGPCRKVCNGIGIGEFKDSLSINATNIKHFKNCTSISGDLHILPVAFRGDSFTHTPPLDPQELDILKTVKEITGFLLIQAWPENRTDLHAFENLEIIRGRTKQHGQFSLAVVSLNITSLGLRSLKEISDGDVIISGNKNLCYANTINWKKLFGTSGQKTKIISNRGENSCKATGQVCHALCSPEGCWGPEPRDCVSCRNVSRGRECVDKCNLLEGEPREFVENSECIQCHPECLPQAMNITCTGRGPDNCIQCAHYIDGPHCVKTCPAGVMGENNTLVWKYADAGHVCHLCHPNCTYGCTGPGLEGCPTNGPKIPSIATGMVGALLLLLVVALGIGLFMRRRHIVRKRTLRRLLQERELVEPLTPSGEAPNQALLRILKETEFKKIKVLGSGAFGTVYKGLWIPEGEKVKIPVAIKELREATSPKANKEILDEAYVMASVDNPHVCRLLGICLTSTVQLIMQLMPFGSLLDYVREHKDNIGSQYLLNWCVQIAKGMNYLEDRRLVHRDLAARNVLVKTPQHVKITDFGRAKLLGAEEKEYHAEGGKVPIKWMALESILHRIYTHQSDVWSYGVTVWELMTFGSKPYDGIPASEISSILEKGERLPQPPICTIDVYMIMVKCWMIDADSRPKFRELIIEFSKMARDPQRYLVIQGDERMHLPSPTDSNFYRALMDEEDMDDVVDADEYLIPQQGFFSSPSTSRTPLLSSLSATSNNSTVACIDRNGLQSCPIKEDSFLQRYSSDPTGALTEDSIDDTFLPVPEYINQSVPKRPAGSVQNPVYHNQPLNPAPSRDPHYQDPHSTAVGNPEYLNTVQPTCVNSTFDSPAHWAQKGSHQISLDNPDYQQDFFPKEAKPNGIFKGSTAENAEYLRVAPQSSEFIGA
measurement protocol: HTRF Phospho EGFR TMLRCS Assay (Cellular)
condition details: BaF3-TMLRCS cell line, 4 hours incubation, Phospho-EGFR HTRF readout
measurement type: pIC50
In plain terms, pIC50 is the concentration in mol/L turned into minus its base-10 logarithm.

{"compound": "O=C(Nc1nccs1)C(c1ncn2c1C[C@@H](F)C2)n1cc2c(Cl)cc(-c3ccc(OCCN4CCC5(CC4)CC(O)C5)cc3)c(Cl)c2n1 (mixture of isomers)", "pIC50": 7.89}

Q) Find the measured pIC50 of O=C(Nc1nccs1)C(c1ncn2c1C[C@@H](F)C2)n1cc2c(Cl)cc(-c3ccc(CCCN4CCC(O)CC4)cc3)c(Cl)c2n1 (mixture of isomers) and report it.
A) 8.15

----------
target or test system: EGFR TMLRCS (Homo sapiens, UniProt P00533, C797S/L858R/T790M)
measurement protocol: HTRF Phospho EGFR TMLRCS Assay (Cellular)
condition details: BaF3-TMLRCS cell line, 4 hours incubation, Phospho-EGFR HTRF readout
Procedure: HTRF Phospho EGFR TMLRCS Assay (Cellular) BaF3-TMLRCS cell line were obtained from Crownbio (San Diego, CA, USA). […] Cells are transferred as above to Greiner Bio-One, Nr. […] The lidded plates were then incubated for 4 h at room temperature before reading the fluorescence emission at 616 and 665 nm using an Envision reader (Perkin Elmer). Data was analyzed in similar fashion as above using the normalized ratio of the 665 to 616 signals multiplied by 10000.
measurement type: pIC50
In plain terms, pIC50 is the concentration in mol/L turned into minus its base-10 logarithm.

Example entries begin here.
{"molecule": "CCN1CC[C@H](c2ccc(-c3cc(Cl)c4cn(C(C(=O)Nc5nccs5)c5ncn6c5C[C@@H](F)C6)nc4c3Cl)cc2)[C@@H](F)C1 (single isomer, unassigned) [Example 37]", "pIC50": 8.00}
{"molecule": "O=C(Nc1nccs1)C(c1ncn2c1C[C@@H](F)C2)n1cc2c(Cl)cc(-c3ccc(C4CN(CCO)C4)cc3)c(Cl)c2n1 (stereo partly drawn)", "pIC50": 7.92}

Now for a further molecule.
Q) Find the measured pIC50 of COCCN1CCC(c2ccc(-c3cc(C)c4cn(C(C(=O)Nc5nccs5)c5ncn6c5C[C@@H](F)C6)nc4c3Cl)cc2)CC1 (stereo partly drawn) and report it.
A) 7.92
